- system.tested: 5HT2a receptor (Homo sapiens (Human))
- Sequence (P28223 whole entry): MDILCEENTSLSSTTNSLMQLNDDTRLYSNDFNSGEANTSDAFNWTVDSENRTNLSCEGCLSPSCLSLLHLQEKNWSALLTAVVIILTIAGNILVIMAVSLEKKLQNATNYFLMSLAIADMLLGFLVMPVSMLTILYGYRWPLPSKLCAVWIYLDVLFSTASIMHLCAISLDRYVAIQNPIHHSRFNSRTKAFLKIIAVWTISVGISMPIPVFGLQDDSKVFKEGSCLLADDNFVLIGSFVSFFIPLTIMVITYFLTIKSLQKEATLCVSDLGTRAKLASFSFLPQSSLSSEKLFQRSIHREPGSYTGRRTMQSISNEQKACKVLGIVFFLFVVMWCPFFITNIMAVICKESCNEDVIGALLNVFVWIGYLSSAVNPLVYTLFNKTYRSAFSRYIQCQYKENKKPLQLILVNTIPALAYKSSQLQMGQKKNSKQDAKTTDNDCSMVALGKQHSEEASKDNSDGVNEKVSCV
Where a name gives a salt, the structure may show the parent alone.
Classify: yes (1) when Ki is strictly less than 3 µM; no (0) when Ki is not.

{"columns": ["molecule", "discrete.label"],
 "data": [
  ["O=C(CN1CCO[C@H](COc2cccc(Cl)c2)C1)N1CCc2ccccc21 [Compound 22s]", "yes (1)"],
  ["COc1cccc(OC[C@H]2CN(CCN3CCc4ccccc43)CCO2)c1 [Compound 25r]", "no (0)"],
  ["Cc1ccc(OC[C@H]2CN(CCN3CCc4ccccc43)CCO2)cn1 [Compound 28r]", "yes (1)"],
  ["CC1Cc2ccccc2N1C(=O)CN1CCO[C@H](COc2cccc(Cl)c2)C1 (stereo partly shown)", "no (0)"],
  ["c1cncc(OC[C@@H]2CN(CCN3CCc4ccccc43)CCO2)c1 [Compound 21s]", "no (0)"],
  ["Clc1cccc(OC[C@H]2CN(CCN3CCc4ccccc43)CCO2)c1 [Compound 23r]", "yes (1)"],
  ["O=C(CN1CCO[C@@H](COc2cccc(Cl)c2)C1)N1CCc2ccccc21 [Compound 22r]", "yes (1)"],
  ["c1ccc(OC[C@@H]2CN(CCN3CCc4ccccc43)CCO2)cc1 [Compound 19s]", "yes (1)"],
  ["Clc1cccc(OC[C@@H]2CN(CCN3CCc4ccccc43)CCO2)c1 [Compound 23s]", "yes (1)"],
  ["O=C(CN1CCO[C@@H](COc2cccnc2)C1)N1CCc2ccccc21 [Compound 20r]", "yes (1)"],
  ["COc1cccc(OC[C@@H]2CN(CCN3CCc4ccccc43)CCO2)c1 [Compound 25s]", "yes (1)"],
  ["COc1cccc(OC[C@@H]2CN(CC(=O)N3CCc4ccccc43)CCO2)c1 [Compound 24s]", "yes (1)"],
  ["CC1Cc2ccccc2N1C(=O)CN1CCO[C@@H](COc2cccc(Cl)c2)C1 (stereo partly shown)", "yes (1)"],
  ["c1cncc(OC[C@H]2CN(CCN3CCc4ccccc43)CCO2)c1 [Compound 21r]", "no (0)"],
  ["Cc1ccnc(C)c1OC[C@H]1CN(CCN2CCc3ccccc32)CCO1 [Compound 29r]", "no (0)"],
  ["Fc1ccc(OC[C@@H]2CN(CCN3CCc4ccccc43)CCO2)cc1 [Compound 32s, hydrochloride]", "yes (1)"]
]}
